Hello, the source for this data is patent US20240218023A1, in case you need it.

# Tested on: HepG2 cells
# experimental protocol: Cellular uptake / binding of FAM-labeled ligands to HepG2 cells (flow cytometry, proportion of FAM positive cells)
# Format: cell-based, human
# stated conditions: 40 nM ligand, 24 h, HepG2
Listed here: items and their measured Efficiency (%) of cellular uptake (percentage of ligand-bound HepG2 cells).
measured parameter: Efficiency (%) of cellular uptake (percentage of ligand-bound HepG2 cells)

{"substance": "5-FAM-CPMB-0031: CPS-003 cyclic peptide scaffold, Gal-1 GalNAc linker, 5-FAM label; FIG. 14I (KEKGKG; D-residues; cyclised or stapled)", "value measured": 87.8}
{"substance": "5-FAM-CPMB-0311: CPS-031 cyclic peptide scaffold, Gal-1 GalNAc linker, 5-FAM label; FIG. 14M (KEKAKA; cyclised or stapled)", "value measured": 68.8}
{"substance": "5-FAM-CPMB-0035: CPS-003 cyclic peptide scaffold, Gal-5 GalNAc linker, 5-FAM label; FIG. 14L (KEKGKG; D-residues; cyclised or stapled)", "value measured": 95.2}
{"substance": "5-FAM-CPMB-0014: CPS-001 cyclic peptide scaffold, Gal-4 GalNAc linker, 5-FAM label; FIG. 14D (KEKGKG; cyclised or stapled)", "value measured": 71.0}
{"substance": "5-FAM-CPMB-0025: CPS-002 cyclic peptide scaffold, Gal-5 GalNAc linker, 5-FAM label; FIG. 14H (KEKGKG; D-residues; cyclised or stapled)", "value measured": 83.1}
